Test system: Cryptococcus neoformans
Experiment: Antimicrobial activity against Cryptococcus neoformans ATCC 90113
Assay type: functional, organism-based
# Lookup of reported MFC keyed by entry
Give the value in µM but do not write µM after it.

[
  {
    "compound": "C/C=C1\\NC(=O)[C@H](Cc2ccccc2)NC(=O)[C@@H](C(C)C)NC(=O)[C@@H]([C@@H](C)CC)NC(=O)[C@H](NC(=O)[C@H](NC(=O)[C@H](CCCN)NC(=O)[C@H]2CCCN2C(=O)[C@H](NC(=O)[C@@H](NC(=O)[C@@H](NC(=O)[C@H](NC(=O)CCCC(C)C)C(C)C)C(C)=O)C(C)C)C(C)C)[C@@H](C)CC)[C@@H](C)OC(=O)[C@H](C(C)C)NC1=O",
    "MFC, µM": 20
  },
  {
    "compound": "C/C=C1\\NC(=O)[C@H](Cc2ccccc2)NC(=O)[C@@H](C(C)C)NC(=O)[C@@H]([C@@H](C)CC)NC(=O)[C@H](NC(=O)[C@H](NC(=O)[C@H](CCCNCc2ccncc2)NC(=O)[C@H]2CCCN2C(=O)[C@H](NC(=O)[C@@H](NC(=O)[C@@H](NC(=O)[C@H](NC(=O)CCCC(C)C)C(C)C)[C@@H](C)O)C(C)C)C(C)C)[C@@H](C)CC)[C@@H](C)OC(=O)[C@H](C(C)C)NC1=O",
    "MFC, µM": 5
  }
]

So for C/C=C1\NC(=O)[C@H](Cc2ccccc2)NC(=O)[C@@H](C(C)C)NC(=O)[C@@H]([C@@H](C)CC)NC(=O)[C@H](NC(=O)[C@H](NC(=O)[C@H](CCCNCCCCCC)NC(=O)[C@H]2CCCN2C(=O)[C@H](NC(=O)[C@@H](NC(=O)[C@@H](NC(=O)[C@H](NC(=O)CCCC(C)C)C(C)C)[C@@H](C)O)C(C)C)C(C)C)[C@@H](C)CC)[C@@H](C)OC(=O)[C@H](C(C)C)NC1=O , the logged MFC turned out to be 10

So for C[C@@H]1[C@H](O)[C@@H](C)/C=C/C=C/C=C/C=C/C=C/C=C/C=C/[C@H](O[C@@H]2O[C@H](C)[C@@H](O)[C@H](N)[C@@H]2O)C[C@@H]2O[C@](O)(C[C@@H](O)C[C@@H](O)[C@H](O)CC[C@@H](O)C[C@@H](O)CC(=O)O[C@H]1C)C[C@H](O)[C@H]2C(=O)O , the logged MFC turned out to be 0.06

So for C/C=C1\NC(=O)[C@H](Cc2ccccc2)NC(=O)[C@@H](C(C)C)NC(=O)[C@@H]([C@@H](C)CC)NC(=O)[C@H](NC(=O)[C@H](NC(=O)[C@H](CCCN)NC(=O)[C@H]2CCCN2C(=O)[C@@H](NC(=O)[C@H](NC(=O)[C@H](NC(=O)[C@@H](NC(=O)CCCC(C)C)C(C)C)[C@H](C)OC(C)=O)C(C)C)C(C)C)[C@@H](C)CC)[C@@H](C)OC(=O)[C@H](C(C)C)NC1=O , the logged MFC turned out to be 5

So for C/C=C1\NC(=O)[C@H](Cc2ccccc2)NC(=O)[C@@H](C(C)C)NC(=O)[C@@H]([C@H](C)CC)NC(=O)[C@H](NC(=O)[C@H](NC(=O)[C@H](CCCN)NC(=O)[C@H]2CCCN2C(=O)[C@H](NC(=O)[C@@H](NC(=O)[C@@H](NC(=O)[C@H](NC(=O)CCCC(C)C)C(C)C)[C@@H](C)O)C(C)C)C(C)C)[C@H](C)CC)[C@H](C)OC(=O)[C@H](C(C)C)NC1=O [KAHALALIDE F] , the logged MFC turned out to be 5

So for C/C=C1\NC(=O)[C@H](Cc2ccccc2)NC(=O)[C@@H](C(C)C)NC(=O)[C@@H]([C@@H](C)CC)NC(=O)[C@H](NC(=O)[C@H](NC(=O)[C@H](CCCNCc2ccc(F)cc2)NC(=O)[C@H]2CCCN2C(=O)[C@H](NC(=O)[C@@H](NC(=O)[C@@H](NC(=O)[C@H](NC(=O)CCCC(C)C)C(C)C)[C@@H](C)O)C(C)C)C(C)C)[C@@H](C)CC)[C@@H](C)OC(=O)[C@H](C(C)C)NC1=O , the logged MFC turned out to be 10

So for C/C=C1\NC(=O)[C@H](Cc2ccccc2)NC(=O)[C@@H](C(C)C)NC(=O)[C@@H]([C@@H](C)CC)NC(=O)[C@H](NC(=O)[C@H](NC(=O)[C@H](CCCNCc2cccs2)NC(=O)[C@H]2CCCN2C(=O)[C@H](NC(=O)[C@@H](NC(=O)[C@@H](NC(=O)[C@H](NC(=O)CCCC(C)C)C(C)C)[C@@H](C)O)C(C)C)C(C)C)[C@@H](C)CC)[C@@H](C)OC(=O)[C@H](C(C)C)NC1=O , the logged MFC turned out to be 10
